B1: Osa-1-4 twister ribozyme (parent)
chain: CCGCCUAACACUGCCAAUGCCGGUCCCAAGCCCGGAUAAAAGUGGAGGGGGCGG

# Variants of: B1
# Assay procedure: self-cleavage, relative activity (ratio to wild type); higher = more cleavage; co-transcriptional
Response key: 1.0 means self-cleavage >= 0.07; 0.0 means self-cleavage < 0.07.

Here are 6 variants together with their reported answers.
Mutation	Category
C11U G45C	0.0
A16C U43C	1.0
A7C G19A	0.0
C15U C20A	1.0
G34C U24C	0.0
G44U G53A	1.0

Problem: In plain terms: is recorded self-cleavage at least 0.07 for C52U G19A ?
Solution: 1.0
